meta.source: PubChem BioAssay AID1890

# target: Replicase polyprotein 1ab (Severe acute respiratory syndrome coronavirus) (UniProt P0C6X7)
# testSummary: SARS 3CLpro cleavage inhibition IC50 – biochemical, quenched FRET, dose response (AID 1890)
# cond: purified 3CLpro, quenched FRET peptide cleavage
Calls of active or inactive are those of the source. The rule behind the calls is not given here.
Response enum: active, inactive

(Q) Dear all, I need the recorded test outcome for CCN(CC)C(=O)Cn1cc(/C=C2\C(=O)NC(=O)N(c3ccccc3F)C2=O)c2ccccc21 , thank you.
(A) inactive

(Q) Would you kindly repeat that for CCc1cccc(CC)c1N(COC)C(=O)Cn1nnc2ccccc21 ?
(A) inactive

(Q) Would you kindly repeat that for CC(C)C12CN(C(=O)c3ccccc3[N+](=O)[O-])CC(C(C)C)(CN(C(=O)c3ccccc3[N+](=O)[O-])C1)C2=O ?
(A) inactive

(Q) Would you kindly repeat that for O=C(c1cc(=O)[nH]c2ccccc12)N1CCN(c2ccccc2)CC1 ?
(A) active

(Q) Would you kindly repeat that for CCc1ccc2c(c1)C(NC(C)=O)C(=O)N2CCN1CCOCC1 (centres undefined) ?
(A) active

(Q) Would you kindly repeat that for CC(=O)c1c(OC(=O)c2ccco2)c2ccccc2n1C ?
(A) inactive

(Q) Would you kindly repeat that for CCCCOc1ccc(C(=O)Oc2cccnc2)cc1 ?
(A) inactive

(Q) Would you kindly repeat that for COc1ccc(C(=O)Oc2cccnc2)cc1 ?
(A) inactive

(Q) Would you kindly repeat that for CCC(C)(C)NC(=O)C(c1ccc(O)cc1)N(C(=O)Cn1nnc2ccccc21)c1ccc(NC(C)=O)cc1 (centres undefined) ?
(A) inactive

###

# target: UniProtKB P0C6X7
# testSummary: SARS 3CLpro cleavage inhibition IC50 – biochemical, quenched FRET, dose response (AID 1890)
# cond: purified 3CLpro, quenched FRET peptide cleavage
Calls of active or inactive are those of the source. The rule behind the calls is not given here.
assayReadout: IC50

For orientation, consider the following solved cases.
{"compound": "O=Cc1cn(Cc2ccccc2)nc1-c1cccnc1", "IC50": "7.21 µM"}
{"compound": "COc1cc2c(cc1OC)C(c1cc(Br)ccc1F)N(C(=O)CCl)CC2 (configuration not stated)", "IC50": "9.88 µM"}
{"compound": "CC(C)C[C@H](NC(=O)c1nc[nH]c1C(=O)NCc1ccc(CNC(=O)OC(C)(C)C)cc1)C(=O)OC(C)(C)C", "IC50": "> 59.6 µM (inactive)"}
{"compound": "COc1ccccc1OCCNC(=O)c1cc(=O)[nH]c2ccccc12", "IC50": "3.6 µM"}
{"compound": "Cc1ccc2[nH]c3c(c2c1)CN(C(=O)CN1c2ccc(F)cc2CCC1C)CC3 (configuration not stated)", "IC50": "inactive"}
{"compound": "Cc1ccc(C2=NN(C(=O)CCl)C(c3ccco3)C2)o1 (configuration not stated)", "IC50": "5.2 µM"}
{"compound": "Cc1nnc(SC(=O)N2c3ccccc3Sc3ccccc32)s1", "IC50": "inactive"}
{"compound": "COc1ccc(C2C(O)C(c3c[nH]c4ccccc34)=NN2C(=O)CCl)cc1 (configuration not stated)", "IC50": "3.58 µM"}
{"compound": "Cc1ccc(-c2cc(NC(=O)c3ccccc3[N+](=O)[O-])n[nH]2)cc1", "IC50": "inactive"}
{"compound": "O=C(Nc1ccc(OCC(F)(F)C(F)F)c(C(F)(F)F)c1)c1ccccc1O", "IC50": "> 59.6 µM (inactive)"}

(Q) Param item = Cc1cccc(N2CCN(C(=O)c3cc(=O)[nH]c4ccccc34)CC2)c1C ; retrieve measured IC50.
(A) 6.66 µM

(Q) Would you kindly repeat that for O=C(N/N=C\c1c(O)ccc2ccccc12)c1cncc(Br)c1 ?
(A) inactive

(Q) Would you kindly repeat that for O=C(OCC(=O)N1c2ccccc2Sc2ccccc21)c1cccnc1 ?
(A) inactive

(Q) Would you kindly repeat that for COc1ccc(N(Cc2cc(=O)[nH]c3ccccc23)C(=O)CCl)cc1 ?
(A) inactive

(Q) Would you kindly repeat that for COc1cc(C2CC(c3cccs3)=NN2C(=O)CCl)ccc1OC(F)F (configuration not stated) ?
(A) 2.8 µM

(Q) Would you kindly repeat that for COc1ccccc1/C=C/C(=O)c1cc(Br)ccc1OC(=O)c1ccco1 ?
(A) 8.94 µM

(Q) Would you kindly repeat that for Cc1ccc(/C=C/C(=O)c2cc(Br)ccc2OC(=O)c2ccco2)cc1 ?
(A) inactive

(Q) Would you kindly repeat that for O=C1C(=O)N(CC2COc3ccccc3O2)c2ccccc21 (configuration not stated) ?
(A) inactive

(Q) Would you kindly repeat that for NC(=O)CCn1c(C(=O)c2cc(Cl)c(N)c(Cl)c2)c2ccccc2[n+]1[O-] ?
(A) 9.81 µM

(Q) Would you kindly repeat that for COc1cc(/C=N\NC(=O)Cn2nnc3ccccc32)cc(OC)c1OC ?
(A) 5.18 µM

(Q) Would you kindly repeat that for NC(=O)CCn1c(C(=O)c2cccc([N+](=O)[O-])c2)c2ccccc2[n+]1[O-] ?
(A) inactive

(Q) Would you kindly repeat that for Cc1cc(C(=O)CCl)c(C)n1-c1cccc([N+](=O)[O-])c1 ?
(A) 4.59 µM

###

# target: Replicase polyprotein 1ab (Severe acute respiratory syndrome coronavirus) (UniProt P0C6X7)
# testSummary: SARS 3CLpro cleavage inhibition IC50 – biochemical, quenched FRET, dose response (AID 1890)
# cond: purified 3CLpro, quenched FRET peptide cleavage
The source made the active and inactive calls. How the calls were made is not given here.
Response enum: TRUE (active), FALSE (inactive)

(Q) Dear all, I need the recorded test outcome for COc1ccc(C(C(=O)NCC2CCCO2)N(C(=O)Cn2nnc3ccccc32)c2ccc(NC(C)=O)cc2)cc1 (stereo unspecified) , thank you.
(A) TRUE

(Q) Would you kindly repeat that for Cc1cc(C)c(N(C(=O)Cn2nnc3ccccc32)C(C(=O)NC(C)(C)C)c2ccsc2)c(C)c1 (stereo unspecified) ?
(A) TRUE

(Q) Would you kindly repeat that for NC(=O)CCn1c(C(=O)c2ccc(Cl)cc2)c2ccccc2[n+]1[O-] ?
(A) TRUE

(Q) Would you kindly repeat that for COc1ccc2cc(C3(C)NC(=O)N(CC(=O)NCc4ccco4)C3=O)ccc2c1 (stereo unspecified) ?
(A) FALSE

(Q) Would you kindly repeat that for CC(=O)n1cc(N(C(=O)CCl)c2ccc([N+](=O)[O-])cc2)c2ccccc21 ?
(A) FALSE

(Q) Would you kindly repeat that for CN(C)S(=O)(=O)c1cccc(NC(=O)CSc2cccc3cccnc23)c1 ?
(A) FALSE

(Q) Would you kindly repeat that for COc1ccc(N(C(=O)Cn2nnc3ccccc32)C2(C(=O)NC3CCCC3)CCCCC2)cc1 ?
(A) TRUE

(Q) Would you kindly repeat that for CC(C)c1ccc(N(C(=O)c2csnn2)C(C(=O)NC2CCCC2)c2cccnc2)cc1 (stereo unspecified) ?
(A) FALSE

(Q) Would you kindly repeat that for Cn1nc(-c2ccc(Cl)cc2)nc2c(=O)n(C)c(=O)nc1-2 ?
(A) FALSE

(Q) Would you kindly repeat that for O=C(/C=C/c1c(F)cccc1Cl)Nc1cccnc1 ?
(A) FALSE

(Q) Would you kindly repeat that for O=C(CSc1ccccn1)Nc1nonc1[N+](=O)[O-] ?
(A) TRUE

(Q) Would you kindly repeat that for N#CCC(=O)N/N=C/c1c(-c2ccccc2)n(-c2ccccc2)c2ccccc12 ?
(A) FALSE

(Q) Would you kindly repeat that for CC1CCC2C(=O)N(c3cc(Cl)ccc3OC(=O)c3ccco3)C(=O)C2C1 (stereo unspecified) ?
(A) TRUE

(Q) Would you kindly repeat that for Cc1cc(NC(=O)COn2nnc3ccc(S(C)(=O)=O)cc32)ccc1Br ?
(A) FALSE

(Q) Would you kindly repeat that for O=c1[nH]c(=O)n(-c2ccccc2F)c(O)c1/C=C1\C=Nc2ccccc21 ?
(A) TRUE

(Q) Would you kindly repeat that for O=C(/C=C/c1ccc(Cl)c([N+](=O)[O-])c1)NCc1cccnc1 ?
(A) FALSE

(Q) Would you kindly repeat that for CC(=O)NC1C(=O)N(CCN2CCOCC2)c2ccc(F)cc21 (stereo unspecified) ?
(A) TRUE

(Q) Would you kindly repeat that for O=C(O)c1ccc2ncsc2c1 ?
(A) FALSE

(Q) Would you kindly repeat that for O=C1C(=O)N(C/C=C/c2ccccc2)c2ccccc21 ?
(A) FALSE

(Q) Would you kindly repeat that for O=C(Cn1nnc2ccccc21)c1ccc(Br)cc1 ?
(A) TRUE

(Q) Would you kindly repeat that for C[C@@]12C(=O)N(c3cccc(Br)c3)C(=O)N1[C@H](c1ccc(Cl)cc1)[C@@H]1C(=O)N(C3CCCCC3)C(=O)[C@@H]12 ?
(A) FALSE

###

# target: Replicase polyprotein 1ab (Severe acute respiratory syndrome coronavirus)
# testSummary: SARS 3CLpro cleavage inhibition IC50 – biochemical, quenched FRET, dose response (AID 1890)
# cond: purified 3CLpro, quenched FRET peptide cleavage
Calls of active or inactive are those of the source. How the calls were made is not given here.
Response enum: active, inactive

(Q) Dear all, I need the recorded test outcome for CCC(C)(C)NC(=O)C(c1cccn1C)N(C(=O)Cn1nnc2ccccc21)c1ccc(NC(C)=O)cc1 (centres undefined) , thank you.
(A) active

(Q) Would you kindly repeat that for COc1cccc(/C=N/NC(=S)Nc2cccnc2)c1 ?
(A) inactive

(Q) Would you kindly repeat that for Cc1cc(=O)oc2cc(NC(=O)Cc3ccccc3[N+](=O)[O-])ccc12 ?
(A) inactive

(Q) Would you kindly repeat that for Cn1cnc2cc(NC(=O)c3ccc(Cl)cc3)ccc21 ?
(A) inactive

(Q) Would you kindly repeat that for CC1(C)C2CC=C(/C=N/NC(=S)Nc3cccnc3)C1C2 (centres undefined) ?
(A) inactive

(Q) Would you kindly repeat that for COc1cccc(C(C(=O)NCC2CCCO2)N(C(=O)Cn2nnc3ccccc32)c2ccc(NC(C)=O)cc2)c1 (centres undefined) ?
(A) inactive

(Q) Would you kindly repeat that for Cc1cc(=O)oc2cc(OC(=O)c3ccco3)ccc12 ?
(A) active

(Q) Would you kindly repeat that for CC(=O)NC1C(=O)N(CCN2CCOCC2)c2ccc(Br)cc21 (centres undefined) ?
(A) active

(Q) Would you kindly repeat that for Cc1cc(C)c(C)c(S(=O)(=O)N2CCN(C(=O)c3cc(=O)[nH]c4ccccc34)CC2)c1C ?
(A) active

(Q) Would you kindly repeat that for O=C(Oc1ccc(Cl)cc1N1C(=O)CCC1=O)c1ccco1 ?
(A) inactive

(Q) Would you kindly repeat that for O=C(/C=C/c1cccs1)Nc1scc(-c2ccccc2)c1C(=O)O ?
(A) active

(Q) Would you kindly repeat that for Cc1cccc2c1N(CCOc1ccccc1)C(=O)C2=O ?
(A) inactive

(Q) Would you kindly repeat that for Cc1ccc(C(=O)n2cnc3ccccc32)cc1C ?
(A) inactive

(Q) Would you kindly repeat that for Cc1cc(C)n(C(=O)c2ccc(C)c(Br)c2)n1 ?
(A) inactive

(Q) Would you kindly repeat that for CCc1cc(=O)oc2cc(OC(=O)c3ccco3)ccc12 ?
(A) active

(Q) Would you kindly repeat that for O=C1NC(=O)N(c2ccccc2F)C(=O)/C1=C/c1cn(CC(=O)N2CCOCC2)c2ccccc12 ?
(A) inactive

(Q) Would you kindly repeat that for COc1cccc(C(C(=O)Nc2ccc(F)cc2)N(C(=O)Cn2nnc3ccccc32)C2CC2)c1 (centres undefined) ?
(A) inactive

(Q) Would you kindly repeat that for CCn1nc(-c2ccccc2)nc2c(=O)n(C)c(=O)nc1-2 ?
(A) inactive

(Q) Would you kindly repeat that for CC(=O)Nc1ccc(N(C(=O)Cn2nnc3ccccc32)C(C(=O)NC2CCCC2)c2ccc(O)c(O)c2)cc1 (centres undefined) ?
(A) inactive

(Q) Would you kindly repeat that for O=C(Oc1ccc(Br)cc1C(=O)/C=C/c1ccccc1F)c1ccco1 ?
(A) active

(Q) Would you kindly repeat that for O=C(O)c1[nH]c2ccccc2c1C(c1cc(Br)ccc1O)c1c(C(=O)O)[nH]c2ccccc12 ?
(A) inactive

(Q) Would you kindly repeat that for COC(=O)c1ccc(OC(=O)CN2C(=O)c3ccccc3C2=O)cc1 ?
(A) inactive

(Q) Would you kindly repeat that for COc1ccc(C(=O)n2c(SC)nc3cc4c(cc32)OCCO4)cc1 ?
(A) active

(Q) Would you kindly repeat that for O=C1C(=O)N(CCCc2ccccc2)c2ccccc21 ?
(A) inactive

(Q) Would you kindly repeat that for Cc1ccc(C(=O)O)cc1NC(=S)NC(=O)c1ccc(COc2ccccc2)cc1 ?
(A) inactive

(Q) Would you kindly repeat that for O=C(/C=C/c1ccccc1Cl)Nc1cccnc1 ?
(A) inactive

(Q) Would you kindly repeat that for Cc1ccc(C(=O)c2c3ccccc3[n+]([O-])n2CCC(N)=O)cc1 ?
(A) active

(Q) Would you kindly repeat that for Cc1cc(NC(=O)COC(=O)C(Nc2ccc(C(F)(F)F)cc2Cl)C(C)C)no1 (centres undefined) ?
(A) inactive

(Q) Would you kindly repeat that for O=C(NCc1ccco1)C(c1ccco1)N(C(=O)Cn1nnc2ccccc21)c1ccc2c(c1)CCC2 (centres undefined) ?
(A) inactive

(Q) Would you kindly repeat that for CCOc1ccc2c(c1)C(=O)C(=O)N2CC1COc2ccccc2O1 (centres undefined) ?
(A) active

(Q) Would you kindly repeat that for O=C(c1cc(=O)[nH]c2ccccc12)N1CCN(c2cccc(C(F)(F)F)c2)CC1 ?
(A) active

(Q) Would you kindly repeat that for Cc1ccc(C(=O)c2c3ccc(C(F)(F)F)cc3[n+]([O-])n2CCC(N)=O)cc1 ?
(A) inactive

(Q) Would you kindly repeat that for O=C(CCl)N(CCc1ccccc1)CCc1ccccc1 ?
(A) inactive

(Q) Would you kindly repeat that for Nc1ncc(Br)cc1S(=O)(=O)Nc1cc(C(F)(F)F)cc(C(F)(F)F)c1 ?
(A) inactive

(Q) Would you kindly repeat that for Cc1ccc(C(=O)Oc2ccc3c(c2)ncn3C)cc1 ?
(A) inactive

(Q) Would you kindly repeat that for Cc1sc(NC(=O)CCl)c(C(=O)c2ccccc2)c1C ?
(A) inactive

(Q) Would you kindly repeat that for CCc1nc(N2CCN(C(=O)CCl)CC2)c2c3c(sc2n1)CC(C)CC3 (centres undefined) ?
(A) active

(Q) Would you kindly repeat that for Cc1ccc(C2CC(c3cccs3)=NN2C(=O)CCl)cc1 (centres undefined) ?
(A) active

(Q) Would you kindly repeat that for O=C(O)COc1ccc(Br)cc1C(c1c(C(=O)O)[nH]c2ccccc12)c1c(C(=O)O)[nH]c2ccccc12 ?
(A) inactive

(Q) Would you kindly repeat that for O=C(Oc1cccnc1)c1ccc(Cl)cc1 ?
(A) active

(Q) Would you kindly repeat that for COc1ccc2c(c1)C(=O)C(=O)N2CC1COc2ccccc2O1 (centres undefined) ?
(A) active

(Q) Would you kindly repeat that for O=C(Nc1ccccc1)NN(C(=O)CCl)c1ccccc1 ?
(A) active

(Q) Would you kindly repeat that for O=C(Cc1ccc(Cl)c(Cl)c1)Nc1cccnc1 ?
(A) inactive

(Q) Would you kindly repeat that for O=C(Cn1nnc2ccccc21)c1ccc(Cl)cc1 ?
(A) active
